Give measured growth for each item. Keep answers brief.
Tested on: HOP-62 NSCLC
method_notes: NCI-60 one-dose screen, 48 h (100 = growth as untreated, 0 = no growth, -100 = all killed)
reported_conditions: 10 µM unless noted
Compounds without any hit were thinned out: in the full panel of roughly 83,000, 20% have a hit.
Just the number in %, nothing appended.

Value wanted: growth (HOP-62 NSCLC) of entry COc1ccc(C(=O)C2C(C#N)C(C#N)C3C=Cc4ccccc4N32)cc1 (centres undefined)
30.1

One more molecule: Cc1cc(Cl)nc(N(CCNc2ccnc3cc(Cl)ccc23)Cc2ccccn2)n1
72.5

What do you get for COc1ccc(-c2nc(S(=O)(=O)c3ccccc3)c(S(=O)CC(=O)N3CCC(C)CC3)o2)cc1 (centres undefined) ?
76.6

For COc1cc(C2=NN(C(C)=O)C(c3cc(OC)c(OC)c(OC)c3)C2)ccc1O (centres undefined) then?
32.8

Please answer likewise for CCCOc1ccc(/C=N/Nc2cc(C)nc3ccc(Br)cc23)cc1
92.7

Consider next the molecule NS(=O)(=O)c1ccc(CCn2c(SCC(=O)c3ccc(Cl)cc3)nc3ccccc3c2=O)cc1 in the same way.
96.1

What about COc1cccc(-c2nc3occn3c2-c2ccnc(NCCCNS(=O)(=O)c3ccc(C(F)(F)F)cc3)n2)c1 ?
103

Try the molecule C=C1C(=O)O[C@H]2[C@H]1CC/C(CNC(=O)CCc1ccc(OC)cc1)=C\CC[C@@]1(C)O[C@@H]21
83.6

Follow-up item: Cc1ccc(-n2c3c(c(-c4ccccc4)c2-c2ccccc2)C2=NCCN2C=N3)cc1
97.6
